- target: Sushi domains (SD1/2) protein of GABAB1a (GB1a)
- Sequence (Q9Z0U4 29-158): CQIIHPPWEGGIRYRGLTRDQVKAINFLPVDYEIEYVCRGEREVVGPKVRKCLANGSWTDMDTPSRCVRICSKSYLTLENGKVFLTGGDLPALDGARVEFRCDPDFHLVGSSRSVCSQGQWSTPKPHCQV
- test.description: FP competition vs TAMRA AJAP-1probe
Starred links: 1 amine or outer side, 2 acyl side, 3 side chain; linkers in the order of their positions; H or OH if unused. Non-standard residues stand in square brackets, D forms with d. Obtyr = O-benzyl-L-tyrosine, O=C([C@H](Cc1ccc(OCc2ccccc2)cc1)N[*:1])[*:2]; 1Nal = N[C@@H](Cc1cccc2ccccc12)C(=O)O
readout: Ki (nM)
Give the value, in units of nM, as a plain number.

Ac-EDDSDVW[1Nal]GGADTD-NH2 (SMILES CC(=O)N[C@@H](CCC(=O)O)C(=O)N[C@@H](CC(=O)O)C(=O)N[C@@H](CC(=O)O)C(=O)N[C@@H](CO)C(=O)N[C@@H](CC(=O)O)C(=O)N[C@H](C(=O)N[C@@H](Cc1c[nH]c2ccccc12)C(=O)N[C@@H](Cc1cccc2ccccc12)C(=O)NCC(=O)NCC(=O)N[C@@H](C)C(=O)N[C@@H](CC(=O)O)C(=O)N[C@H](C(=O)N[C@@H](CC(=O)O)C(N)=O)[C@@H](C)O)C(C)C) [EDDSDVW(1Nala)GGADTD]    499

Incoming: Quick one: Ki of Ac-EDDD[Obtyr]IDWGPTSDDD-NH2 (SMILES CC[C@H](C)[C@H](NC(=O)[C@H](Cc1ccc(OCc2ccccc2)cc1)NC(=O)[C@H](CC(=O)O)NC(=O)[C@H](CC(=O)O)NC(=O)[C@H](CC(=O)O)NC(=O)[C@H](CCC(=O)O)NC(C)=O)C(=O)N[C@@H](CC(=O)O)C(=O)N[C@@H](Cc1c[nH]c2ccccc12)C(=O)NCC(=O)N1CCC[C@H]1C(=O)N[C@H](C(=O)N[C@@H](CO)C(=O)N[C@@H](CC(=O)O)C(=O)N[C@@H](CC(=O)O)C(=O)N[C@@H](CC(=O)O)C(N)=O)[C@@H](C)O) [peptide 35] ?
Outgoing: 9.5
